Hey, just so you know, these numbers are from paper PMC6792352.

test system: thyroid hormone receptor (endogenous TRα and TRβ); set-up: species or system GH3-TRE-Luc (rat pituitary); GH3-TRE-Luc luciferase reporter, antagonist mode against 1 nM T3, loss of signal, qHTS; details: read-out: Average AC50 (uM) GH3-TRE-Antag, antagonist mode, 1 nM T3, no GH3 cytotoxicity hit
In this section, each of the compounds is paired with its reported AC50.
Measured endpoint: AC50

INSERT INTO results (compound, reading) VALUES
  ('CC(C)(C)NC(=O)[C@H]1CC[C@H]2[C@@H]3CC[C@H]4NC(=O)C=C[C@]4(C)[C@H]3CC[C@]12C [Finasteride]', '> 20 µM'),
  ('C[C@@H]1C[C@H]2[C@@H]3C[C@H](F)C4=CC(=O)C=C[C@]4(C)[C@@]3(F)[C@@H](O)C[C@]2(C)[C@@]1(O)C(=O)COC(=O)C(C)(C)C [Flumethasone pivalate]', '26.2 µM'),
  ('Nc1nc(N)c2nc(-c3ccccc3)c(N)nc2n1 [Triamterene]', '39.2 µM'),
  ('CCO/N=C(\CC)C1=C(O)CC(c2c(C)cc(C)cc2C)CC1=O (centres unmarked) [Tralkoxydim]', '> 90 µM'),
  ('c1ccc(-c2cccc(-c3ccccc3)c2)cc1 [1,1'':3'',1''''-Terphenyl]', '50.3 µM'),
  ('C(COCC1CO1)OCC1CO1 (centres unmarked) [Ethylene glycol diglycidyl ether]', '38 µM'),
  ('Oc1ccc(Cc2ccccc2O)cc1 [2-(4-Hydroxybenzyl)phenol]', '63.8 µM'),
  ('O=C(O)Cn1c(C(=O)Nc2nc(-c3ccccc3Cl)cs2)cc2ccccc21 [Lintitript]', '> 50 µM'),
  ('COc1ccc(-c2cc(=S)ss2)cc1 [Anethole trithione]', '> 50 µM'),
  ('CCOC(=O)C(C)Oc1ccc(Oc2cnc3cc(Cl)ccc3n2)cc1 (centres unmarked) [Quizalofop-ethyl]', '78.2 µM'),
  ('S=P(N1CC1)(N1CC1)N1CC1 [Thiotepa]', '37.9 µM'),
  ('CC(=O)[C@H]1CC[C@H]2[C@@H]3C=CC4=CC(=O)CC[C@@]4(C)[C@@H]3CC[C@]12C [Dydrogesterone]', '9.99 µM'),
  ('Cc1nc2ccc(CN(C)c3ccc(C(=O)N[C@@H](CCC(=O)O)C(=O)O)s3)cc2c(=O)[nH]1 [Raltitrexed]', '0.18 µM'),
  ('CC/C=C\CCOC(=O)c1ccccc1 [(3Z)-Hex-3-en-1-yl benzoate]', '73.9 µM'),
  ('C[C@]12CC[C@@H]3c4ccc(O)cc4CC[C@H]3[C@@H]1CCC2=O [Estrone]', '0.0388 µM'),
  ('CNCc1ccc(NC(=O)c2c[nH]c3c2C(=O)CCC3)cc1 [CP-409092]', '84.3 µM'),
  ('C#C[C@]1(O)CC[C@H]2[C@@H]3CCc4cc(O)ccc4[C@H]3CC[C@@]21C [17alpha-Ethinylestradiol]', '16.2 µM');
